These measurements were taken from BindingDB's records for doi:10.1016/s0022-2836(03)00399-1.

# ASSAYED SYSTEM: Serine protease 1 (Bos taurus, UniProt P00760)
# Sequence (P00760 whole entry): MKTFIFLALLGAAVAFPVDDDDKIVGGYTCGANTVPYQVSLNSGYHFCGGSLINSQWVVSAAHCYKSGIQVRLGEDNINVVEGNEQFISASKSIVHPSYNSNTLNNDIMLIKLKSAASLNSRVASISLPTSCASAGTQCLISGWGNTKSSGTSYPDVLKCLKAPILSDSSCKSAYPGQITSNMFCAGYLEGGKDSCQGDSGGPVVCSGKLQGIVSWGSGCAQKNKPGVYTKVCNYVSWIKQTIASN
# ASSAY SUMMARY: Enzyme Assay and Determination of the Inhibition Constants
# CONDITIONS: pH 7.6; 22 °C
pKi: −log10 of the molar value.

CHEM SMILES	pKi
Cc1cc(-c2ccccc2)c(O)c(-c2cc3cc(C(=N)N)ccc3[nH]2)c1	7.82

----------
# ASSAYED SYSTEM: UniProt P00749
# ASSAY SUMMARY: Enzyme Assay and Determination of the Inhibition Constants
pKi: −log10 of the molar value.
Response key: Criterion met means pKi >= 6; Criterion not met means pKi < 6.

CHEM SMILES	ASSIGNED CLASS
Cc1cc(Cl)c(O)c(-c2cc3cc(C(=N)N)ccc3[nH]2)c1	Criterion met
N=C(N)c1ccc2[nH]c(-c3cc(Cl)cc(-c4ccccc4)c3O)cc2c1	Criterion met
C[C@H]1CCCC[C@@H]1Oc1cccc(-c2nc3cc(C(=N)N)c(F)cc3[nH]2)c1O	Criterion met
N=C(N)c1ccc2nc(-c3cc(OC(F)(F)F)ccc3O)[nH]c2c1	Criterion not met
